Test system: Saccharomyces cerevisiae
Assay: protein stability index of tFT-peptide fusion in deletion strain of DAS1 (PSI (0-1 scale)); higher = more stable (slower turnover)
measure: protein stability index
Write the value as a bare number.

• PDKRNHLIWLLN = 0.705
• VTGAVGGWRLVG = 0.672
• LKILRQKINHQN = 0.668

Prompt: Report protein stability index, nothing else, for this sequence: CTSNGYKFRTNN
Completion: 0.674

Prompt: Report protein stability index, nothing else, for this sequence: KKHKKGQKQIIN
Completion: 0.584

Prompt: Report protein stability index, nothing else, for this sequence: VRGAVGGWRLVD
Completion: 0.684

Prompt: Report protein stability index, nothing else, for this sequence: PDKRNHLHKLLN
Completion: 0.59

Prompt: Report protein stability index, nothing else, for this sequence: PDKRNHGIKLLN
Completion: 0.587

Prompt: Report protein stability index, nothing else, for this sequence: AHWRVGLWRGAS
Completion: 0.688

Prompt: Report protein stability index, nothing else, for this sequence: PSLAASFWRVVGA
Completion: 0.681

Prompt: Report protein stability index, nothing else, for this sequence: RTSCGYKFRTNN
Completion: 0.685

----------
Test system: Saccharomyces cerevisiae
Assay: protein stability index of tFT-peptide fusion (C-terminal peptide) (PSI (0-1 scale)); higher = more stable (slower turnover)
Settings: genetic background: wild type; temperature: 30 C
measure: protein stability index
Write the value as a bare number.

Prompt: Give protein stability index only, for LLRALPSYRPFP , using Saccharomyces cerevisiae data.
Completion: 0.696

Prompt: Give protein stability index only, for GWWGGEGVEGEP , using Saccharomyces cerevisiae data.
Completion: 0.685

Prompt: Give protein stability index only, for RSFSKRSFMFLC , using Saccharomyces cerevisiae data.
Completion: 0.263

----------
Reported protein stability index values are given for each entry in this list.
Test system: Saccharomyces cerevisiae
Assay: protein stability index of tFT-peptide fusion (C-terminal peptide) (PSI (0-1 scale)); higher = more stable (slower turnover)
Conditions: genetic background: wild type; temperature: 30 C
Write the value as a bare number.

These recorded examples may help you get a feel for the data.
- NGLGKGKTKGEI: 0.625
- SGRFRAFVLRSM: 0.476
- LRPPPPPAQPFV: 0.69
- LLPLRPRSLGPP: 0.693
- VRCKGLGLAVCA: 0.541

Prompt: Report protein stability index, nothing else, for this sequence: RTKTQGKKRRQN
Completion: 0.57

Prompt: Report protein stability index, nothing else, for this sequence: GIVFVFGGGLAL
Completion: 0.702

Prompt: Report protein stability index, nothing else, for this sequence: HAQTNSNSQLLL
Completion: 0.677

Prompt: Report protein stability index, nothing else, for this sequence: FSCKGSYIFTRR
Completion: 0.651

Prompt: Report protein stability index, nothing else, for this sequence: KAEEKARGEDWQ
Completion: 0.681

Prompt: Report protein stability index, nothing else, for this sequence: PTVLCTGKCLRS
Completion: 0.635

Prompt: Report protein stability index, nothing else, for this sequence: KTNNQVDTSVKD
Completion: 0.645

Prompt: Report protein stability index, nothing else, for this sequence: YCHVPVVGSWIP
Completion: 0.735

Prompt: Report protein stability index, nothing else, for this sequence: PLLPPLPVSPLP
Completion: 0.704

Prompt: Report protein stability index, nothing else, for this sequence: KGYGKTGTLRHD
Completion: 0.646

Prompt: Report protein stability index, nothing else, for this sequence: FFLSFRLFSILL
Completion: 0.311

Prompt: Report protein stability index, nothing else, for this sequence: DLVGRETRMRLN
Completion: 0.383

Prompt: Report protein stability index, nothing else, for this sequence: GSLFANYNLKLF
Completion: 0.163

Prompt: Report protein stability index, nothing else, for this sequence: GYPPDPSPPRLL
Completion: 0.724

Prompt: Report protein stability index, nothing else, for this sequence: SPRVSRRVLPSF
Completion: 0.67

Prompt: Report protein stability index, nothing else, for this sequence: PSSPPCPPPLPS
Completion: 0.624

Prompt: Report protein stability index, nothing else, for this sequence: LVGIYYEHPISP
Completion: 0.754

Prompt: Report protein stability index, nothing else, for this sequence: VLQSTTNPPTSW
Completion: 0.631

Prompt: Report protein stability index, nothing else, for this sequence: LSALQQSSAPSI
Completion: 0.691

Prompt: Report protein stability index, nothing else, for this sequence: EIGSWKTISILV
Completion: 0.487

Prompt: Report protein stability index, nothing else, for this sequence: PPLVHPCPSSHI
Completion: 0.801

----------
Test system: Saccharomyces cerevisiae
Experiment: protein stability index of tFT-peptide fusion (C-terminal peptide) (PSI (0-1 scale)); higher = more stable (slower turnover)
Conditions: genetic background: doa10 deletion; temperature: 30 C
Think of 0.2 as a floor: if protein stability index stands on it or above, it is True; beneath it, False.

- VRFGYGRIVWDI: True
- SELLVHVVFWLA: False
- LKTKKKKTNTQK: True

Prompt: Can GWVVVVCGVCCG be said to have protein stability index at or above 0.2?
Completion: False

Prompt: Can PLLLFFFPRLLF be said to have protein stability index at or above 0.2?
Completion: True

Prompt: Can RSNLSKSWHRIG be said to have protein stability index at or above 0.2?
Completion: False

Prompt: Can TLRINSPFYFLS be said to have protein stability index at or above 0.2?
Completion: True

Prompt: Can FLLCRVFVLLRS be said to have protein stability index at or above 0.2?
Completion: False

Prompt: Can NCVDRFKGQKRM be said to have protein stability index at or above 0.2?
Completion: True

Prompt: Can AELLMLRIFFLF be said to have protein stability index at or above 0.2?
Completion: False

Prompt: Can PPSLPPLISFSP be said to have protein stability index at or above 0.2?
Completion: True

Prompt: Can FSQGFRSPSECL be said to have protein stability index at or above 0.2?
Completion: True

Prompt: Can SVFWCFHVLFWS be said to have protein stability index at or above 0.2?
Completion: True

Prompt: Can YPPLFLLMRGVL be said to have protein stability index at or above 0.2?
Completion: False

Prompt: Can RNDCAYHVLQIV be said to have protein stability index at or above 0.2?
Completion: False

Prompt: Can GLFGFASPPPPS be said to have protein stability index at or above 0.2?
Completion: True

Prompt: Can FFLLTCFLLPSV be said to have protein stability index at or above 0.2?
Completion: True

Prompt: Can RVRRETRLRQIA be said to have protein stability index at or above 0.2?
Completion: False

Prompt: Can WSLPPLLSPLYF be said to have protein stability index at or above 0.2?
Completion: True

----------
Test system: Saccharomyces cerevisiae
Assay: protein stability index of tFT-peptide fusion (C-terminal peptide) (PSI (0-1 scale)); higher = more stable (slower turnover)
Conditions: genetic background: wild type; temperature: 30 C
measure: protein stability index
Write the value as a bare number.

These recorded examples may help you get a feel for the data.
* EDIIRPWSMFQE | 0.718
* SPWLSSRFRVPR | 0.686
* REVLYCTSMLQD | 0.707
* MVARFGNEFMFL | 0.695
* VTRRIPPRGGPR | 0.72

Prompt: Report protein stability index, nothing else, for this sequence: AARWHEPLSRER
Completion: 0.699

Prompt: Report protein stability index, nothing else, for this sequence: PLPPPPPPPRSP
Completion: 0.718

Prompt: Report protein stability index, nothing else, for this sequence: SSVYLRRSCDHD
Completion: 0.699

----------
Test system: Saccharomyces cerevisiae
Test: protein stability index of tFT-peptide fusion (C-terminal peptide) (PSI (0-1 scale)); higher = more stable (slower turnover)
Conditions: genetic background: wild type; temperature: 30 C
Reported protein stability index values are given for each entry in this list.

These recorded examples may help you get a feel for the data.
* SSGKRANINKNK | 0.695
* PRGKVLPFAFAC | 0.554
* PRSSHHPLPSPP | 0.676
* WCVRRVRFVMGC | 0.31
* YANFFVVGELGP | 0.687
* CGRRGYIVRTFL | 0.658
* GHFWVFGIPFFR | 0.655
* LPSPPVSIPYPS | 0.671

Consider now this further sequence.
Prompt: Report protein stability index, nothing else, for this sequence: GYGLGVEAEGLE
Completion: 0.715

----------
Reported protein stability index values are given for each entry in this list.
System: Saccharomyces cerevisiae
Test: protein stability index of tFT-peptide fusion (C-terminal peptide) (PSI (0-1 scale)); higher = more stable (slower turnover)
Details: genetic background: wild type; temperature: 30 C
Write the value as a bare number.

- MKSRQKPESGPR: 0.69
- VGGRAAIGRGGW: 0.706
- AERARRERRGGV: 0.712

Prompt: Give protein stability index only, for LGCSVGESVGAG , using Saccharomyces cerevisiae data.
Completion: 0.68

Prompt: Give protein stability index only, for SSSVLPESFSPS , using Saccharomyces cerevisiae data.
Completion: 0.687

These data points were gathered from the supplement of paper PMC10724198.
